Reported pIC50 is given for each of the following molecules.
Tested on: NMNAT2-V5 polypeptide
Test: NMNAT2-V5 polypeptide expression in transfected Beas2B cells (Western blot), dose dependent, 24 h
Type: cell-based
Details: Beas2B cells transfected with NMNAT2-V5 plasmid, compound for 24 hours, read-out: A: compound efficacy (IC50) for NMNAT2 activation
pIC50: −log10 of the molar value.

# molecule, pIC50
records = [
    ("CN(CCc1nsc(-c2ccc(C(=O)NCc3ccc4c(c3)OCO4)cc2)n1)C(=O)c1ccccc1", "≤ 4.60"),
    ("COc1ccc(OCC(=O)Nc2ccc3c(c2)nc(CCNC(=O)c2cccs2)n3C)cc1", "≤ 4.60"),
    ("Cc1ccc2onc(CNC(=O)NCc3ccccn3)c2c1", "4.60 to 5.30"),
    ("CC(=O)Nc1ccc(NC(=O)c2ccccc2OCc2nc(-c3ccc(C)cc3)ns2)cc1 [BC18116]", "≤ 4.60"),
    ("Cc1ccc2onc(CNC(=O)NCc3cccc(Cl)c3)c2c1", "> 5.30"),
]

The measured values listed here are drawn from patent US20220169632A1.
